# method: soluble on expression in E. coli; label from the status in PepcDB or PDB records
value_type: soluble on expression in E. coli

In the examples that follow, each entry is paired with its recorded soluble on expression in E. coli.
item_sequence | value_type | value
MQNHVISLASAAERRAHIAATFGARGIPFQFFDALMPSERLEQAMAELVPGLSAHPYLSGVEKACFMSHAVLWKQALDEGLPYIAVFEDDVLLGEGAEKFLAEDAWLKERFDPDSAFIVRLETMFMHVLTSPSGVADYCGRAFPLLESEHWGTAGYIISKKAIRFFLQHFVMLQPEQIKPIDLMMFSDFFDKEGMPVYQVSPALCAQELHYAKFHDQNSALGSLIEHDRLLNRKQQRRDSPANTFKRRLIRALTKISLEHHHHHH | soluble on expression in E. coli | soluble
MGNIMSASFAPECTDLKTKYDSCFNEWYSEKFLKGKSVENECSKQWYAYTTCVNAALVKQGIKPALDEAREEAPFENGGKLKEVDK | soluble on expression in E. coli | soluble
MGSDKIHHHHHHMPFVRLDVRRPGHADRIVYVPVTTRTSYLLKSSEGGMVLRFDRGDVVAARVRPLNIGDVGALLSRRRRHKRFQLPLGRGAVLQPLLHISGPEGRELARALGSLAGWGFGTASDNLQKTLSRHFNGPQAEAPERLPTVEPKIAVALHLHYPDLWPEFEALLEATGRQFQLFLTLTRPDAALAQRVQARFPGAEITVYENRGRDVGPFIQLLREGKFDPFDLICKLHGKKSGQSGPRMVLGEIWRQVSAFDLIGSRGVVDRIIANFERSPDTQMIGSRRFRLPNEWKGEKSAWGENRAMALNLLETMGMPSSSRLDFFAGTMFWVRRGALEPLRRLDLPLAAFPEETGQQDGTLQHALERVLGMICTKIGVASDGDMTTDSREADPIG | soluble on expression in E. coli | not soluble
MSTVVEKSGEAKPGKVEVGVKLRGAEKVARIPVKIIPTEELPKKPDWIRVRIPVSPEVDRIKQLLRKHKLHSVCEEASCPNLGECFSGGTATFMIMGDICTRRCPFCDVGHGRPKPLDVDEPTNLAIAIADLRLKYVVITSVDRDDLRDGGAQHFADCLREIRKLSPGIQLETLVPDYRGRMDIALEITANEPPDVFNHNLETVPRLYRSSRPGSDFEWSLDLLQKFKQMVPHVPTKSGLMLGLGETDDEVIEVMQRMREHDIDMLTLGQYLQPSRNHLPVQRFVHPDTFAWFAEEGEKMGFKNVASGPLVRSSYHADQQAHGNKIG | soluble on expression in E. coli | not soluble

According to the records, this sequence MAHHHHHHMMRLLRNNVKNMFLKNCFLVRNTNVKCWRTDRFHNYNMWNTVENNGIRGFSSSSFEEIKKMNMFTAINSAMHNVFESNPNSVLLGEDVAFGGVFRCSLDLLKKYGNMRVFNTPLCEQGIIGFAIGLAENGFTTIAEIQFGDYIFPAFDQIVNDVAKYRYRSGSSFDVGKLTIRSTWGAVGHGGLYHSQSPEAFFAHAAGIKIIVPSDAYKAKGLLLSAINDPNPCLFFEPKILYRSSVCDVPTGPYQLELGKADVVRQGSDVTIVTWGSLVHKMKNAAEILSKKHNIECEVIDLQSIIPWDIETVQKSVEKTGRLLITHEAQLTNGFGAEIAAKIQERCFYNLHTPIKRVCGYDTPFPHVYEPFYMPDAHKVIYEVKKMMK displays soluble on expression in E. coli of not soluble

According to the records, this sequence MQIDNISDEQVVIVRMSCYLKKDEIFKNIERYGYQSSDIKKISPPFPLNILPVPKPYYFYLYDTHLNQIYDLAWSCNDFLMFEIFILDRESIKYIDKDKLFKSRETLYSNFKSIKNQCKNYFFCGFDFDAPYFKSGVSQVADYNFVPDAFSLFFI displays soluble on expression in E. coli of not soluble

====

# method: soluble on expression in E. coli; label from the status in PepcDB or PDB records
value_type: soluble on expression in E. coli

item_sequence | value
MGSDKIHHHHHHMGGCCSQEGCNTRPRYLPLKCYPGLPMRATRRLDLSAVERALREVQGRFAELSQHFTEPRDPFTDEVLLNVVEGYALIDDYVARGIDLFDLQQLNLMLEINATVLCGSDPARRLEFAPHLAATEAHFFNNVEGGIKDLYNWYCAYRSDSIWKRAAGVYVRILSKPQLFIEGNNRTGSLIVSYLLMRAGLPPFVLSLDNAEGYFNPSSVIRNSAKHGVKALYELPKIKKKYAAFLEAKAPEPGKFFLNGTPVPACEGSR | not soluble
MAAKRLAVLCIFLLPNTQFRQLRLAETAEELPQLLREAEKASWTYLEFLESITRYELAKREAKSLEKRMKWARFPFVKSLDEFELRGQNVLTARQLSQLRELSWLEQQYNLILLGPPGIGKTYIAIGLGLEAVYRGFHVYFATMGELVQLLKSEEYLNKSKVQLKRIRNADLVIIDDLMYMAMDQREANLFFHLINHLYERSSIILTSNKSPEEWGHLIGDQGITTAILDRLLHRVEVIHGGENEESHRMKNRKSIFSAEVLEHHHHHH | not soluble
MLQLTHVTLKTRQVILQDVDFTFKKGRVYGLLAINGSGKTTLFRAISNLIPISSGNIAAPPSLFYYESIEWLDGNLSGMDYLRLIKNIWKSGLNLRDEIAYWEMSDYISLPIRKYSLGMKQRLVIAMYFLSQAKCWLMDEITNGLDEYYRQKFFDRLAQIDRQEQLVLLSSHYKEELVDVCDRVVTIHQGQIEEV | not soluble

====

# method: soluble on expression in E. coli; label from the status in PepcDB or PDB records
value_type: soluble on expression in E. coli

item_sequence | value
MGSDKIHHHHHHMIELCEVTKTYPIYHGHAQRTILDRINLRVGKGQKWGILGRNGAGKSTLIRLISGAERPNTGNIVRNMTVSWPLAFGGAFQGSLTGRDNTRLICRAYGVDFDKTITMVENFAELGSYLWEPVKSYSSGMSARLAFAISISVEFDCFLIDEALAVGDHRFLQKCNVELFENRGDRAMIIVSHQTNIIRTHCDHAAVLENGHLTVHESVDSAIAAYEAL | not soluble
MSLGLVLSTNVAHIQQDPGGDDRISGINKLPVATGIDVFIPGPNYGDGSGVVGDAIGDSLHHGGAHKAIYAYSREELDFFDPTYRNGYFGENLTTSGIVLEDLLINQQVRIGTTLLEVSIPRRPCRTFAHWLDIKGWLKTFTQRGLPGSYFRVIEEGHINPGDPIEVLQAPDHDITMSMAFRAKMGNKDLARRVVAANCLPARYHEELLKLIEGHHHHHH | not soluble

====

# method: soluble on expression in E. coli; label from the status in PepcDB or PDB records

item_sequence | soluble on expression in E. coli
SGTQALLVEERARLERLLGARLEAAADQALARLVEANPQPVHLICDLTHRLLACSPARAAQFGVPLGELLDRSLWPYCSEEILRQEATLEELGWRELLAPPALEFASGANASAIVPIRRSRCRWTRMTLSDGRAVRLVETL | not soluble
MSLRFLADIEEYIGFEIPKIEAPSQEEVARKKPEFLAKLNDRPESKKDKSEELNKDIMKLYFNGGKKKKIRAVDFVGTIAKIDGVSADDIGIITIMDNASYVEILNGKGPHVLKVMKNTTVKGKQLKVNKANKEGHHHHHH | not soluble
MPKSLYNYHEFIHLSHDGRIPFEKIEVPKNAILLNNSADLDNYVYLIIDGYVALFLNDGKEQPKIYSIQGEGAFLNYFTLLDHSINRFRYKTLSKCFLYRYSKLDIEYFLSMFPENFGFQFFIMKNQTTHIYFKSLMASSPASEKLMLTFSNLARLHGIPTEDDTVILPPAIKTSHLLSYSNLSKSCFYKDLQYLKTTNQIEKQDNSWIIHNKELNLMLQNGETYI | not soluble

====

# method: soluble on expression in E. coli; label from the status in PepcDB or PDB records
value_type: soluble on expression in E. coli

In the examples that follow, each entry is paired with its recorded soluble on expression in E. coli.
item_sequence | value_type | value
MSLAKPIEAHTVSPVNPNAQQTTKTVMNWLAHLPNRTENRVLSGAFGGYSHDTFSMAEADRIRSATGQSPAIYGCDYARGWLETANIEDSIDVSCNGDLMSYWKNGGIPQISLHLANPAFQSGHFKTPITNDQYKKILDSSTVEGKRLNAMLSKIADGLQELENQGVPVLFRPLHEMNGEWFWWGLTSYNQKDNERISLYKQLYKKIYHYMTDTRGLDHLIWVYSPDANRDFKTDFYPGASYVDIVGLDAYFQDAYSINGYDQLTALNKPFAFTEVGPQTANGSFDYSLFINAIKQKYPKTIYFLAWNDEWSAAVNKGASALYHDSWTLNKGEIWNGDSLTPIVEEGHHHHHH | soluble on expression in E. coli | soluble
MGSDKIHHHHHHMNELQNFNFEGNEVRTVLINDEPYFVGKDVATAIGYQNTRKAIKDHVKTKYMREERIVTPSGTQTMTVISEPGIYQLAGQSKLPTAEPFQDWIYEEVLPSIRKHGAYMTDEKIEEALLNPDTIISLATQLKNEREKVEVERNGRLIAEQRVEELQPKADYYDQILSNKGVVTVTSIAKNYGMTAPELNKLLNRLGVQYSQSGSWYLYKKYQKNGYTHTIPVPYSHRDGRPDIKPQTKWTQKGHIFIYQLLKEHGILPMIEMKDESAV | soluble on expression in E. coli | not soluble
MKYKILLKGKQYFATINLFDGRIAMDVQVQFMAELSQLIDKLSFLSRDQLKIALKGYKPAEVHTIEFIGEHSETNVTAIASALYVTRGAVSKITKRLISRGLIVRYQKPDNQKEVYFKLTAQGQEVFEIHKKFTNYFMQRDEPIFRDSPDAVATTLAFLHQYNAFLDQKLTIKK | soluble on expression in E. coli | not soluble
MENVVIIDAVRTPMGRSKGGAFRHVRAEDLSAHLMRAVISRNPGLNAAEIDDIYWGCVQQTLEQGFNIARNASLLAEIPHSVPAVTVNRLCGSSMQALHDGARAIMVGDAKISLIGGVEHMGHVPMNHGVDFHPGMGRTVAKAAGMMGLTAEMLAKIHNISRQSQDEFAFRSHQRAYAATQAGHFAKEIVATNGHDAEGVLKRFDFDEVIRPETNLSGLAALRPAFDPVNGTVTAGTSSALSDGASAMLIMSESRAKSLGLTPRARIRSMAVVGCDPSIMGYGPVPASQLALKRAGLELADIGLFELNEAFAAQSLACLKGLGLLESMDDKVNLNGGAIALGHPLGCSGARISTTLLNLMERRDVQFGLATMCIGLGQGIATVFERL | soluble on expression in E. coli | not soluble
MKPSWDIFCSVVDNYGDAGVTWRLARQLVAEHDVQVRLWIDDLAAFVRLCPDADPCASQQLREGVSVCRWPADWVSSTVPDVVIEAFACRLPTSYTESMLQRSPRPLWLNLEYLSAEDWVSGCHGLPSPQMNGLKKFFFFPGFADTTGGLLRERNLIGQRQAFQQDKALQQAFLQELNVEPLAGARLISVFAYETPRLDSWLDALASDSRPTHLLVPEGRILADVQRWLGSEGQLHAGTVQASGALTVQVLPFIRQERYDQLLWSCDFNVVRGEDSFVRAQWAGRPMLWHIYQQEEDAHLPKLDAFLALYL | soluble on expression in E. coli | not soluble

According to the records, this sequence GSKFLNKRLSEREFDPDIHCGVIDLDTKKPCTRSLTCKTHSLTQRRAVQGRRKRFDVLLAEHKNKTREKELIRH displays soluble on expression in E. coli of soluble
